Tested on: 233499-124-R-J3-PDC complex spheroid growth
procedureDetails: Anticancer human tumor 233499-124-R-J3-PDC patient-derived colon adenocarcinoma cell line growth inhibition [AhR]
experimentalContext: second compound 10 µM; first compound 0.1 µM; stronger effect = lower value
Consider the following compounds; for each one, report its viability, T/C.
All answers are understood in %, so give the number only.

So for Nc1ccccc1NC(=O)c1ccc(CNC(=O)OCc2cccnc2)cc1 + Cc1cncc(-c2nc(NCCc3c[nH]c4ccccc34)c3ncn(C(C)C)c3n2)c1 , the logged viability, T/C turned out to be 7.87

So for Nc1ncn(C2CC(O)C(CO)O2)c(=O)n1 (stereo unspecified) + Cc1ccccc1N=Nc1ccc(NC(=O)c2ccnn2C)c(C)c1 , the logged viability, T/C turned out to be 106

So for O=C(c1cc(Cc2n[nH]c(=O)c3ccccc23)ccc1F)N1CCN(C(=O)C2CC2)CC1 + CC(CO)NC(=O)c1cc(-c2ccc(Cl)cc2)nn(-c2cnn(C)c2)c1=O , the logged viability, T/C turned out to be 90

So for Nc1ccn(C2OC(CO)C(O)C2(F)F)c(=O)n1 (stereo unspecified) + Cc1cncc(-c2nc(NCCc3c[nH]c4ccccc34)c3ncn(C(C)C)c3n2)c1 , the logged viability, T/C turned out to be 44.9

So for NS(=O)(=O)OCC1CC(n2ccc3c(NC4CCc5ccccc54)ncnc32)CC1O (stereo unspecified) + Cc1cncc(-c2nc(NCCc3c[nH]c4ccccc34)c3ncn(C(C)C)c3n2)c1 , the logged viability, T/C turned out to be 17.1

So for COc1cc(Nc2ncc3c(n2)-c2ccc(Cl)cc2C(c2c(F)cccc2OC)=NC3)ccc1C(=O)O + Cc1cncc(-c2nc(NCCc3c[nH]c4ccccc34)c3ncn(C(C)C)c3n2)c1 , the logged viability, T/C turned out to be 22.4

----------
Tested on: 233499-124-R-J3-PDC complex spheroid growth
procedureDetails: Anticancer human tumor 233499-124-R-J3-PDC cell line growth inhibition [AhR];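 further: spheroids exposed to agents for seven days before reading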
experimentalContext: second compound 3.16 µM; first compound 0.949 µM; stronger effect = lower value
quantityName: viability, T/C (%)
All answers are understood in %, so give the number only.

viability, T/C on 233499-124-R-J3-PDC complex spheroid growth for CCN(c1cc(-c2ccc(CN3CCOCC3)cc2)cc(C(=O)NCc2c(C)cc(C)[nH]c2=O)c1C)C1CCOCC1 + Cc1ccccc1N=Nc1ccc(NC(=O)c2ccnn2C)c(C)c1 is 92.6

viability, T/C on 233499-124-R-J3-PDC complex spheroid growth for O=C(C=Cn1cnc(-c2cc(C(F)(F)F)cc(C(F)(F)F)c2)n1)NNc1cnccn1 + Cc1cncc(-c2nc(NCCc3c[nH]c4ccccc34)c3ncn(C(C)C)c3n2)c1 is 60.7

viability, T/C on 233499-124-R-J3-PDC complex spheroid growth for O=C(C=Cn1cnc(-c2cc(C(F)(F)F)cc(C(F)(F)F)c2)n1)NNc1cnccn1 + CC(CO)NC(=O)c1cc(-c2ccc(Cl)cc2)nn(-c2cnn(C)c2)c1=O is 62.7

viability, T/C on 233499-124-R-J3-PDC complex spheroid growth for CCN(c1cc(-c2ccc(CN3CCOCC3)cc2)cc(C(=O)NCc2c(C)cc(C)[nH]c2=O)c1C)C1CCOCC1 + Cc1cncc(-c2nc(NCCc3c[nH]c4ccccc34)c3ncn(C(C)C)c3n2)c1 is 73.2

viability, T/C on 233499-124-R-J3-PDC complex spheroid growth for O=C(C=Cn1cnc(-c2cc(C(F)(F)F)cc(C(F)(F)F)c2)n1)NNc1cnccn1 + Cc1ccccc1N=Nc1ccc(NC(=O)c2ccnn2C)c(C)c1 is 93.2

viability, T/C on 233499-124-R-J3-PDC complex spheroid growth for CCN(c1cc(-c2ccc(CN3CCOCC3)cc2)cc(C(=O)NCc2c(C)cc(C)[nH]c2=O)c1C)C1CCOCC1 + CC(CO)NC(=O)c1cc(-c2ccc(Cl)cc2)nn(-c2cnn(C)c2)c1=O is 98.7

----------
Tested on: 233499-124-R-J3-PDC complex spheroid growth
procedureDetails: Anticancer human tumor 233499-124-R-J3-PDC cell line growth inhibition [AhR];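 further: spheroids exposed to agents for seven days before reading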
experimentalContext: curve of first compound; second compound 0.316 µM
quantityName: IC50

So for O=C(C=Cn1cnc(-c2cc(C(F)(F)F)cc(C(F)(F)F)c2)n1)NNc1cnccn1 + Cc1ccccc1N=Nc1ccc(NC(=O)c2ccnn2C)c(C)c1 , the logged IC50 turned out to be > 3 µM

So for Nc1ccccc1NC(=O)c1ccc(CNC(=O)OCc2cccnc2)cc1 + Cc1cncc(-c2nc(NCCc3c[nH]c4ccccc34)c3ncn(C(C)C)c3n2)c1 , the logged IC50 turned out to be 2.61 µM

So for CCN(c1cc(-c2ccc(CN3CCOCC3)cc2)cc(C(=O)NCc2c(C)cc(C)[nH]c2=O)c1C)C1CCOCC1 + Cc1ccccc1N=Nc1ccc(NC(=O)c2ccnn2C)c(C)c1 , the logged IC50 turned out to be > 3 µM

So for O=C(c1cc(Cc2n[nH]c(=O)c3ccccc23)ccc1F)N1CCN(C(=O)C2CC2)CC1 + CC(CO)NC(=O)c1cc(-c2ccc(Cl)cc2)nn(-c2cnn(C)c2)c1=O , the logged IC50 turned out to be > 10 µM

So for CC1(C)CCC(CN2CCN(c3ccc(C(=O)NS(=O)(=O)c4ccc(NCC5CCOCC5)c([N+](=O)[O-])c4)c(Oc4cnc5[nH]ccc5c4)c3)CC2)=C(c2ccc(Cl)cc2)C1 + Cc1cncc(-c2nc(NCCc3c[nH]c4ccccc34)c3ncn(C(C)C)c3n2)c1 , the logged IC50 turned out to be > 10 µM

----------
Test system: 233499-124-R-J3-PDC complex spheroid growth
procedureDetails: Anticancer human tumor 233499-124-R-J3-PDC cell line growth inhibition [AhR];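 further: spheroids exposed to agents for seven days before reading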
experimentalContext: curve of first compound; second compound 0.316 µM
Consider the following compounds; for each one, report its IC50.

So for COc1ccc([C@@H](O)c2cc(-c3ncnc4cc(N5CCOCC5)ccc34)c(F)cc2Cl)nn1 + Cc1ccccc1N=Nc1ccc(NC(=O)c2ccnn2C)c(C)c1 , the logged IC50 turned out to be > 10 µM

So for CC(C)c1c(-c2ccccc2)nc2c(C#N)c[nH]n2c1=O + Cc1cncc(-c2nc(NCCc3c[nH]c4ccccc34)c3ncn(C(C)C)c3n2)c1 , the logged IC50 turned out to be > 10 µM

So for NS(=O)(=O)OCC1CC(n2ccc3c(NC4CCc5ccccc54)ncnc32)CC1O (stereo unspecified) + Cc1cncc(-c2nc(NCCc3c[nH]c4ccccc34)c3ncn(C(C)C)c3n2)c1 , the logged IC50 turned out to be 0.523 µM

So for COc1ccc([C@@H](O)c2cc(-c3ncnc4cc(N5CCOCC5)ccc34)c(F)cc2Cl)nn1 + CC(CO)NC(=O)c1cc(-c2ccc(Cl)cc2)nn(-c2cnn(C)c2)c1=O , the logged IC50 turned out to be > 10 µM

So for COc1cc(C2c3cc4c(cc3C(OC3OC5COC(C)OC5C(O)C3O)C3COC(=O)C23)OCO4)cc(OC)c1O (stereo unspecified) + Cc1ccccc1N=Nc1ccc(NC(=O)c2ccnn2C)c(C)c1 , the logged IC50 turned out to be > 10 µM

So for CC1COCCN1c1cc(C2(S(C)(=N)=O)CC2)nc(-c2ccnc3[nH]ccc23)n1 (stereo unspecified) + Cc1cncc(-c2nc(NCCc3c[nH]c4ccccc34)c3ncn(C(C)C)c3n2)c1 , the logged IC50 turned out to be > 10 µM

----------
Tested on: 233499-124-R-J3-PDC complex spheroid growth
procedureDetails: Anticancer human tumor 233499-124-R-J3-PDC cell line growth inhibition [AhR];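 further: spheroids exposed to agents for seven days before reading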
experimentalContext: second compound 1 µM; first compound 0.316 µM; stronger effect = lower value
quantityName: viability, T/C (%)
All answers are understood in %, so give the number only.

So for O=C(c1cc(Cc2n[nH]c(=O)c3ccccc23)ccc1F)N1CCN(C(=O)C2CC2)CC1 + Cc1ccccc1N=Nc1ccc(NC(=O)c2ccnn2C)c(C)c1 , the logged viability, T/C turned out to be 98.1

So for COc1cc(C2c3cc4c(cc3C(OC3OC5COC(C)OC5C(O)C3O)C3COC(=O)C23)OCO4)cc(OC)c1O (stereo not given) + CC(CO)NC(=O)c1cc(-c2ccc(Cl)cc2)nn(-c2cnn(C)c2)c1=O , the logged viability, T/C turned out to be 94.2

So for COc1cc(Nc2ncc3c(n2)-c2ccc(Cl)cc2C(c2c(F)cccc2OC)=NC3)ccc1C(=O)O + Cc1ccccc1N=Nc1ccc(NC(=O)c2ccnn2C)c(C)c1 , the logged viability, T/C turned out to be 90.4

So for Nc1ccn(C2OC(CO)C(O)C2(F)F)c(=O)n1 (stereo not given) + Cc1cncc(-c2nc(NCCc3c[nH]c4ccccc34)c3ncn(C(C)C)c3n2)c1 , the logged viability, T/C turned out to be 64

So for Nc1ncn(C2CC(O)C(CO)O2)c(=O)n1 (stereo not given) + Cc1cncc(-c2nc(NCCc3c[nH]c4ccccc34)c3ncn(C(C)C)c3n2)c1 , the logged viability, T/C turned out to be 82.9

So for Nc1ncn(C2CC(O)C(CO)O2)c(=O)n1 (stereo not given) + Cc1ccccc1N=Nc1ccc(NC(=O)c2ccnn2C)c(C)c1 , the logged viability, T/C turned out to be 103

So for Nc1ccccc1NC(=O)c1ccc(CNC(=O)OCc2cccnc2)cc1 + CC(CO)NC(=O)c1cc(-c2ccc(Cl)cc2)nn(-c2cnn(C)c2)c1=O , the logged viability, T/C turned out to be 105

So for O=C(c1cc(Cc2n[nH]c(=O)c3ccccc23)ccc1F)N1CCN(C(=O)C2CC2)CC1 + Cc1cncc(-c2nc(NCCc3c[nH]c4ccccc34)c3ncn(C(C)C)c3n2)c1 , the logged viability, T/C turned out to be 93.9

So for Nc1ccn(C2OC(CO)C(O)C2(F)F)c(=O)n1 (stereo not given) + CC(CO)NC(=O)c1cc(-c2ccc(Cl)cc2)nn(-c2cnn(C)c2)c1=O , the logged viability, T/C turned out to be 35.3

So for NS(=O)(=O)OCC1CC(n2ccc3c(NC4CCc5ccccc54)ncnc32)CC1O (stereo not given) + CC(CO)NC(=O)c1cc(-c2ccc(Cl)cc2)nn(-c2cnn(C)c2)c1=O , the logged viability, T/C turned out to be 32.7
